Reference source for all entries: patent US20240270821A1

Recorded EC50, one value per entry.
# assayed system: hGLP-1R (Homo sapiens, UniProt P43220)
# Sequence (P43220 24-463): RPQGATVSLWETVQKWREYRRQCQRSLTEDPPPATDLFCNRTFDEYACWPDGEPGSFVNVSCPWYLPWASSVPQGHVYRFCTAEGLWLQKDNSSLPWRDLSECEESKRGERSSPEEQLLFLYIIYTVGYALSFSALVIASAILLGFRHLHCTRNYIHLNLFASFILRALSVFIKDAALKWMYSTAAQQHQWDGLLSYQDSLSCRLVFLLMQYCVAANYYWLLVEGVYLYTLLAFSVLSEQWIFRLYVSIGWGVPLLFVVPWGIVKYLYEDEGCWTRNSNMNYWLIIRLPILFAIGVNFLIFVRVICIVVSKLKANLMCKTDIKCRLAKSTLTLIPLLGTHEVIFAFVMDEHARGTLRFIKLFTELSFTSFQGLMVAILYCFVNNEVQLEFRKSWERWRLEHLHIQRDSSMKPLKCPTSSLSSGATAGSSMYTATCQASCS
# method: Functional cAMP activity in the presence of 1% HSA
# Format: cell-based
# assay setup: read-out: cAMP Rel EC50, hGLP-1R
Starred links: 1 amine or outer side, 2 acyl side, 3 side chain; linkers in the order of their positions; H or OH if unused. Non-standard residues stand in square brackets, D forms with d. Groups on a side chain read outwards from the residue. No end group written: not given here. *: point of attachment. C20 diacid = O=C(O)CCCCCCCCCCCCCCCCCCC(=O)*; C18 diacid = O=C(O)CCCCCCCCCCCCCCCCC(=O)*; αMePhe(2-F) = C[C@](N)(Cc1ccccc1F)C(=O)O; γGlu = O=C(O)[C@H](CCC(=O)[*:2])N[*:1]; αMe4Pal = C[C@](N)(Cc1ccncc1)C(=O)O; αMeY = C[C@](N)(Cc1ccc(O)cc1)C(=O)O; 4Pal = N[C@@H](Cc1ccncc1)C(=O)O; αMeL = CC(C)C[C@](C)(N)C(=O)O; αMeS = C[C@](N)(CO)C(=O)O; Orn = NCCC[C@H](N)C(=O)O; AEEA = NCCOCCOCC(=O)O; Aib = CC(C)(N)C(=O)O
State the answer as a number, implicitly in nM.

H-Y[Aib]QGTFTSD[4Pal]S[Orn][αMeL]LDKK([AEEA-AEEA-γGlu-C18 diacid])AQ[αMe4Pal]AFIEYLIE[Aib]GPSSGAPPPSGS-NH2 [Example 814] :: 649
H-Y[Aib]QGT[αMePhe(2-F)]TSD[4Pal][αMeS]I[αMeL]LD[Orn]K([γGlu-γGlu-C18 diacid])AQ[αMe4Pal]EFI[dE][αMeY]LVEGGPSSGEPPPSGTGE-NH2 [Example 738] :: 28.2
H-Y[Aib]QGT[αMePhe(2-F)]TSD[4Pal]SILLD[Orn]K([γGlu-γGlu-C18 diacid])AQ[Aib]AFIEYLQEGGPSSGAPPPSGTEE-NH2 [Example 581] :: 65.9
Y[Aib]QGT[αMePhe(2-F)]TSD[4Pal][αMeS]I[αMeL]LD[Orn]K([AEEA-γGlu-C18 diacid])AQ[αMe4Pal]EFI[dE][αMeY]LIEGGPSSGEPPPEGTGE-NH2 [Example 763] :: 42.5
Y[Aib]QGT[αMePhe(2-F)]TSD[4Pal][αMeS]I[αMeL]LD[Orn]K([γGlu-γGlu-C18 diacid])AQ[Aib][Orn]FI[dE][αMeY]LAEGGPSSGEPPPSGTEE-NH2 [Example 571] :: 42.7

Exam item: Please give the measured EC50 for this substance: H-Y[Aib]QGT[αMePhe(2-F)]TSD[4Pal][αMeS]I[αMeL]LD[Orn]K([AEEA-γGlu-C18 diacid])AQ[αMe4Pal]EFI[dE][αMeY]LIEGGPSSGAPPPSGE-NH2 [Example 1140]
Marked response: 39.2

Exam item: # repeat for H-Y[Aib]QGTFTSDYSI[αMeL]LDKQAAK([AEEA-AEEA-γGlu-C20 diacid])QFIEWLIEGGPSSGEPPPGEG-NH2 [Example 318]
Marked response: 111

Exam item: Now the same for H-Y[Aib]QGTFTSDFSK[αMeL]LDKK([AEEA-γGlu-C18 diacid])AQ[Aib]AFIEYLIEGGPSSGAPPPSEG-NH2 [Example 49]
Marked response: 151

Exam item: Entry H-Y[Aib]QGTFTSDFSK[αMeL]LDKK([AEEA-γGlu-C20 diacid])AQ[Aib]AFIEWLIEGGPSSGAPPPSEG-NH2 [Example 40] please
Marked response: 138

Exam item: And the next one, H-Y[Aib]QGT[αMePhe(2-F)]TSD[4Pal]SILLDKK([γGlu-γGlu-C18 diacid])AQ[Aib]AFIEYLEEGGPSSGEPPPSGTEE-NH2 [Example 608] ?
Marked response: 201

Exam item: Same again, this time with H-Y[Aib]QGT[αMePhe(2-F)]TSD[4Pal][αMeS]I[αMeL]LD[Orn]K([AEEA-γGlu-C18 diacid])AQ[αMe4Pal]EFI[dE][αMeY]LIEGGPSSGAPPPEGGGE-NH2 [Example 759]
Marked response: 34.8
